The measurements presented in this section are drawn from paper PMC11413503.

# study_target: AR (Homo sapiens, UniProt P10275)
# Sequence (P10275 whole entry): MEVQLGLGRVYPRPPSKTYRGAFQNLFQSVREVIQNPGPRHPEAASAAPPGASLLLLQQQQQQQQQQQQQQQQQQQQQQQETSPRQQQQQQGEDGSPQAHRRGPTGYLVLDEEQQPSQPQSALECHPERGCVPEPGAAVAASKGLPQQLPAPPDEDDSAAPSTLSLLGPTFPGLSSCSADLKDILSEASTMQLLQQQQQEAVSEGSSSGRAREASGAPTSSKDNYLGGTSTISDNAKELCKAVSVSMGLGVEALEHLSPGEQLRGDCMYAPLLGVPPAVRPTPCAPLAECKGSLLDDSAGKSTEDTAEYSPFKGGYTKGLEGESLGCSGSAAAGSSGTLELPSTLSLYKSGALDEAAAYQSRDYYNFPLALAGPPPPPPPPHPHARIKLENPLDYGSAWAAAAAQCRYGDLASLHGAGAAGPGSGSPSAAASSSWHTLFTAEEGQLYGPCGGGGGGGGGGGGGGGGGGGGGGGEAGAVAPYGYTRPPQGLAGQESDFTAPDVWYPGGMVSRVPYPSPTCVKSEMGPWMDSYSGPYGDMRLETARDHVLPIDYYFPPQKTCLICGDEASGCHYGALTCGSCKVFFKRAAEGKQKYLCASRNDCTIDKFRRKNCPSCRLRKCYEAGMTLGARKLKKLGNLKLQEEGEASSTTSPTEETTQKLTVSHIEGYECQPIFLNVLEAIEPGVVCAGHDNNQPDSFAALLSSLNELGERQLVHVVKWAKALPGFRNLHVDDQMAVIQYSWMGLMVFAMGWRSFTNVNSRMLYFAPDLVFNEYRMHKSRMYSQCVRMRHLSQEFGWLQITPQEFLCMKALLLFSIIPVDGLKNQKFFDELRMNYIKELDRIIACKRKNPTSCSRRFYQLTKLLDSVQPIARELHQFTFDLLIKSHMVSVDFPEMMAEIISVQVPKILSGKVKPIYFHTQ
# test_details: Mini-profiling panel, nuclear hormone receptor
# Type: cell-based
# Description: Further insight into selectivity was evaluated in a functional panel of 47 representative targets closely related to human life activities, including G protein‐coupled receptors, transporters, ion channels, kinases, nuclear hormone receptor targets, and nonkinase enzymes (Table S3).
quantity_measured: IC50

// lookup IC50 for Cn1cnc2c(=O)n(-c3cccnc3C3CC3)c3cc(Cl)ccc3c21
> 10 µM

* * *

# study_target: AR (Homo sapiens, UniProt P10275)
# test_details: Mini-profiling panel, nuclear hormone receptor
# Format: cell-based
quantity_measured: EC50

Entry Cn1cnc2c(=O)n(-c3cccnc3C3CC3)c3cc(Cl)ccc3c21 [SCR‐7952] , system AR (Homo sapiens, UniProt P10275): what EC50 was measured?
> 10 µM

* * *

# study_target: CHRM1 (Homo sapiens, UniProt P11229)
# Sequence (P11229 1-460): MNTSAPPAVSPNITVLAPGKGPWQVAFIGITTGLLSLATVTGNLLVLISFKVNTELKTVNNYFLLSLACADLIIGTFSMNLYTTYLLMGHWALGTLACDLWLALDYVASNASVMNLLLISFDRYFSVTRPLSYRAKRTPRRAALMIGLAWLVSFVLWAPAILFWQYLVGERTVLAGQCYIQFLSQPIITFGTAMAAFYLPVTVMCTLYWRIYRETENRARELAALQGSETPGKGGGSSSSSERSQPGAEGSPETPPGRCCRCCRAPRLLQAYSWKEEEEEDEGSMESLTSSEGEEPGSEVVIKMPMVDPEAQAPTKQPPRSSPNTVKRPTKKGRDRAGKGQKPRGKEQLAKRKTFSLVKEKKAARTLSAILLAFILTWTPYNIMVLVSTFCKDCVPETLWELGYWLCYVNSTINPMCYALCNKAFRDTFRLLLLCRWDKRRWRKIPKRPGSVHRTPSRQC
# test_details: Mini-profiling panel, GPCR
quantity_measured: IC50

Entry Cn1cnc2c(=O)n(-c3cccnc3C3CC3)c3cc(Cl)ccc3c21 [SCR‐7952] , system CHRM1 (Homo sapiens, UniProt P11229): what IC50 was measured?
> 10 µM

* * *

# study_target: OPRD1 (Homo sapiens)
# Sequence (P41143 whole entry, species assumed): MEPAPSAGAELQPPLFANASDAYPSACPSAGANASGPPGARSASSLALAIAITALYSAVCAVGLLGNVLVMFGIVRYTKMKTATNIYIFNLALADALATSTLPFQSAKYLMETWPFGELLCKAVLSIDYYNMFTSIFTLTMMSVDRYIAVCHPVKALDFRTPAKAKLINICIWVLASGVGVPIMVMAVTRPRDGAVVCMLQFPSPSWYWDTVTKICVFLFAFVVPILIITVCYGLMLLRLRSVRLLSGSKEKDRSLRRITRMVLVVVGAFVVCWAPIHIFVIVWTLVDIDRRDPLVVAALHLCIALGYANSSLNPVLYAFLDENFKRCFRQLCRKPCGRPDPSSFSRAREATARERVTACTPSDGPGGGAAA
# test_details: Mini-profiling panel, GPCR
# Assay type: cell-based
pIC50: −log10 of the molar value.
quantity_measured: pIC50

// lookup pIC50 for Cn1cnc2c(=O)n(-c3cccnc3C3CC3)c3cc(Cl)ccc3c21 [SCR‐7952]
< 5.00

* * *

# study_target: OPRM1 (Homo sapiens, UniProt P35372)
# Sequence (P35372 whole entry, species assumed): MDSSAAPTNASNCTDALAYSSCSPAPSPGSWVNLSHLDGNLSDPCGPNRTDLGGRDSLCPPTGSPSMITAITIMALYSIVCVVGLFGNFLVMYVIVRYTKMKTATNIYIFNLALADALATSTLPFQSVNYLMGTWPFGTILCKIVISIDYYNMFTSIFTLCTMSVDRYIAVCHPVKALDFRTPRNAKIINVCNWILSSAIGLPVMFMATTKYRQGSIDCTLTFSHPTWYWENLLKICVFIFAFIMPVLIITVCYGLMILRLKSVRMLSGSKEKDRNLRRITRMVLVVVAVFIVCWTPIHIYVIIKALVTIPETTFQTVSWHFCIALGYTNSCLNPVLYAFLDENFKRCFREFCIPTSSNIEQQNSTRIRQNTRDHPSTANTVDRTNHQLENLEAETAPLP
# test_details: Mini-profiling panel, GPCR
pEC50: −log10 of the molar value.
quantity_measured: pEC50

// lookup pEC50 for Cn1cnc2c(=O)n(-c3cccnc3C3CC3)c3cc(Cl)ccc3c21
< 5.00

* * *

# study_target: OPRM1 (Homo sapiens, UniProt P35372)
# test_details: Mini-profiling panel, GPCR
quantity_measured: IC50

// lookup IC50 for Cn1cnc2c(=O)n(-c3cccnc3C3CC3)c3cc(Cl)ccc3c21
> 10 µM

* * *

# study_target: INSR (Homo sapiens, UniProt P06213)
# Sequence (P06213 28-1382, species assumed): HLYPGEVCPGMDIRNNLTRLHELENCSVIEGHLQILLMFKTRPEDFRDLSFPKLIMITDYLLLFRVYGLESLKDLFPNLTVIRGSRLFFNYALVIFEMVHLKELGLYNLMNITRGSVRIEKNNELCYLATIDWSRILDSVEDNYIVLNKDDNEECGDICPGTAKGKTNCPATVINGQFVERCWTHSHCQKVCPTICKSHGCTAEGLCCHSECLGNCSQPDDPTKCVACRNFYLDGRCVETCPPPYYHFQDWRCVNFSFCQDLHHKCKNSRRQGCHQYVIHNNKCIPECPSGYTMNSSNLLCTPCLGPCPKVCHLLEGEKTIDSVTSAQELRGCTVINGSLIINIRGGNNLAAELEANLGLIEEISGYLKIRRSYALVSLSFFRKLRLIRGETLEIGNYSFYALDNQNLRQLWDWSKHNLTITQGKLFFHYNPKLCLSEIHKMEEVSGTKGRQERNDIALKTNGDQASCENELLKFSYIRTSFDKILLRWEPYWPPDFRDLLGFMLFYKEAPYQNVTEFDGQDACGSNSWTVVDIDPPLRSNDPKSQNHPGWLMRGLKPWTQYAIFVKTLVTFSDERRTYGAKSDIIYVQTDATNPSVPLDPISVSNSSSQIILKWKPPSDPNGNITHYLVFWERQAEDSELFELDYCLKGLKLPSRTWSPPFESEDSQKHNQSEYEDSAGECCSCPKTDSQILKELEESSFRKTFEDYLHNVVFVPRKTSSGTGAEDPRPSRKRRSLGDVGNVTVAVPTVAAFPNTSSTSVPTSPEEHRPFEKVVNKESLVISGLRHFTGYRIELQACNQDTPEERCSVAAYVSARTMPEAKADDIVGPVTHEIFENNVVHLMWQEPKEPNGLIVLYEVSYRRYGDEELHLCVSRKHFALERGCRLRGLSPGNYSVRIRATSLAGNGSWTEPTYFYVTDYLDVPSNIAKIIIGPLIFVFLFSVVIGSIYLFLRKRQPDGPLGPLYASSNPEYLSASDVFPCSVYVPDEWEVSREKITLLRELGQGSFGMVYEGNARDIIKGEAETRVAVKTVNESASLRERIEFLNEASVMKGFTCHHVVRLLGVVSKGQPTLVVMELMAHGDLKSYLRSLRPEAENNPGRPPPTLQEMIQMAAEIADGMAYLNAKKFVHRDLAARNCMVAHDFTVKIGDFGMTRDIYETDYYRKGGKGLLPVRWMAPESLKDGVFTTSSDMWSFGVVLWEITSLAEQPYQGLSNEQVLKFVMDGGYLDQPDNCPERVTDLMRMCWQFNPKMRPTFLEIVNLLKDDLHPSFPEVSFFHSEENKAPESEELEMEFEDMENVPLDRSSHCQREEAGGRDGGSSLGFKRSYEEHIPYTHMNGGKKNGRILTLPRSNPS
quantity_measured: IC50

// lookup IC50 for Cn1cnc2c(=O)n(-c3cccnc3C3CC3)c3cc(Cl)ccc3c21
> 10 µM

* * *

# study_target: ADRA1A (Homo sapiens, UniProt P35348)
# Sequence (P35348 whole entry): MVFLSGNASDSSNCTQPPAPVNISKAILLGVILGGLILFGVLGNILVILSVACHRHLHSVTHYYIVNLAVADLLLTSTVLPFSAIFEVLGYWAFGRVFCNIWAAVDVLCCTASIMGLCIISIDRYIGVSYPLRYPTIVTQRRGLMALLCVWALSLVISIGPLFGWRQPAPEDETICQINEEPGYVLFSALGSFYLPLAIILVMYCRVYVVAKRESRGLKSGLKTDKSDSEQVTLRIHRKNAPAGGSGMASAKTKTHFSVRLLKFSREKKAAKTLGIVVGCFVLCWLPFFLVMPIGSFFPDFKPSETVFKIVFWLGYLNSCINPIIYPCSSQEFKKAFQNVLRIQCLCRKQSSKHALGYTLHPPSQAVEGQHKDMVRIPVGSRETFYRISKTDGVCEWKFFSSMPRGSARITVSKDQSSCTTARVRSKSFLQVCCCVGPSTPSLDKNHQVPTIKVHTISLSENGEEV
# test_details: Mini-profiling panel, GPCR
pEC50: −log10 of the molar value.
quantity_measured: pEC50

// lookup pEC50 for Cn1cnc2c(=O)n(-c3cccnc3C3CC3)c3cc(Cl)ccc3c21 [SCR‐7952]
< 5.00
